Please go through the items and note down their TGI.
- System: NCI-H460 lung
- experimental-protocol: NCI tumour cell line growth inhibition, 48 h

q: What does the data say about its TGI? Entry: `O=C(NCc1ccccc1)c1c(O)c2ccccc2[nH]c1=O`
a: > 100 µM

q: What does the data say about its TGI? Entry: CC(=O)O[C@H]1C(=O)[C@@]2(C)C(C(OC(=O)c3ccccc3)[C@]3(O)CC(OC(=O)C(O)C(NC(=O)c4ccccc4)c4ccc(C)cc4)C(C)=C1C3(C)C)[C@]1(OC(C)=O)CO[C@@H]1C[C@@H]2O (stereo partly drawn)
a: > 25 µM

q: What does the data say about its TGI? Entry: `Cc1nnc2sc(-c3ccc([N+](=O)[O-])o3)nn12`
a: 49.4 µM

q: What does the data say about its TGI? Entry: `C=C1C(=O)O[C@H]2[C@H]([C@H](C)CCCC(C)=O)O[C@H]([C@@]3(C)CCC(=O)O3)C[C@@H]12`
a: > 100 µM

q: What does the data say about its TGI? Entry: CC1OC=CC(=O)C1O (stereo not drawn)
a: > 100 µM

q: What does the data say about its TGI? Entry: `O=C(O)c1ccc2cccnc2c1O`
a: 11.1 µM

q: What does the data say about its TGI? Entry: CC(C)(O)CCC(O)C(C)(O)C1CCC2(O)C3=CC(=O)C4(O)CC(O)C(O)CC4(C)C3CCC12C (stereo not drawn) (tested in a mixture with another compound)
a: > 100 µM

q: What does the data say about its TGI? Entry: Cc1cc(O)c2c(c1)C(=O)C(c1c(C)cc3c(c1O)C(=O)C1OC1C3=O)=CC2=O (stereo not drawn)
a: 25.8 µM

q: What does the data say about its TGI? Entry: `COc1ccc(C2=NNC(=O)c3ccccc3N2c2nc(-c3cccs3)nc3ccc(Br)cc23)cc1`
a: > 100 µM

q: What does the data say about its TGI? Entry: CCOC(=O)C1=C(C)N(c2ccc(C)cc2)C2(O)C=CC(=O)C3=C(O)c4ccccc4C(=O)C312 (stereo not drawn)
a: > 100 µM

q: What does the data say about its TGI? Entry: `OC(O)(C(F)(F)F)C(F)(F)F`
a: > 100 µM

q: What does the data say about its TGI? Entry: `CCOC(=O)c1cc(-c2ccn(C(C)=O)c2)c(-c2cc(C)co2)[nH]1`
a: > 100 µM

q: What does the data say about its TGI? Entry: `O=C(O)c1cc2c(c3ccsc13)-c1ccccc1CC2`
a: > 100 µM

q: What does the data say about its TGI? Entry: `O=C(Nc1cccc([N+](=O)[O-])c1)c1cc2ccccc2cc1O`
a: > 100 µM

q: What does the data say about its TGI? Entry: `C/C=C/C(=O)[O-].N.N.N.N.N.[Co+3].[O-][Cl+3]([O-])([O-])[O-]`
a: > 100 µM

q: What does the data say about its TGI? Entry: `C[n+]1c(-c2ccc(/C=N/Nc3ccnc(N/N=C/c4ccc(-c5cn6ccccc6[n+]5C)cc4)n3)cc2)cn2ccccc21`
a: > 100 µM

q: What does the data say about its TGI? Entry: c1ccc2c(c1)c1c3n2-c2cc(on2)C3CCC1 (stereo not drawn)
a: > 100 µM

q: What does the data say about its TGI? Entry: `O=S(=O)(/N=C1/SC(=Nc2ccccc2)N(c2ccccc2)/C1=N/S(=O)(=O)c1ccccc1)c1ccccc1`
a: 51.6 µM

q: What does the data say about its TGI? Entry: COc1cccc2c1[C@]1(O)C(O)CCCC21 (stereo partly drawn)
a: > 100 µM

q: What does the data say about its TGI? Entry: C[C@@H](c1ccccc1)N(CC#N)C1CCC[C@H]1O (stereo partly drawn)
a: > 100 µM

q: What does the data say about its TGI? Entry: `COc1ccc(NC(=S)NNC(=O)c2cc(-c3ccccc3)nc3ccccc23)cc1`
a: 35.9 µM

q: What does the data say about its TGI? Entry: `CN(C)c1ccc(/C=C2\C[C@H]3[C@@H]4CCc5cc(O)ccc5[C@H]4CC[C@]3(C)C2=O)cc1`
a: > 100 µM

q: What does the data say about its TGI? Entry: `Cc1ccc2cnc(N)c(C#Cc3cncc(C(=O)Nc4ccc(CN5CCN(C)CC5)c(C(F)(F)F)c4)c3)c2c1`
a: 0.819 µM

q: What does the data say about its TGI? Entry: O=S1(=O)CC(Br)C(Br)C1 (stereo not drawn)
a: 61.8 µM

q: What does the data say about its TGI? Entry: `O=c1[nH]cnc2nc(-c3ccc(N(CCCl)CCCl)cc3)[nH]c12`
a: > 100 µM

q: What does the data say about its TGI? Entry: C#CCOc1cccc(Nc2ncc3ncn(C4CCN(C(=O)CCl)C4)c3n2)c1 (stereo not drawn)
a: > 62.5 µM

q: What does the data say about its TGI? Entry: `S=c1[nH]nc(SCc2ccccc2Cl)c2[nH]cnc12`
a: > 100 µM

q: What does the data say about its TGI? Entry: `COc1cc(C(=O)C/C(CCC(=O)Nc2ccc(Cl)cc2Cl)=N/Nc2nnc(C)n2N)ccc1O`
a: > 100 µM

q: What does the data say about its TGI? Entry: `COC(=O)[C@@H]1O[C@]12[C@@H](CO[Si](C)(C)C(C)(C)C)O[C@@H](n1cc(C)c(=O)[nH]c1=O)[C@@H]2O[Si](C)(C)C(C)(C)C`
a: > 100 µM

q: What does the data say about its TGI? Entry: `CC1(C)CC(=O)C(=CN2C(=O)CNC2=S)C(=O)C1`
a: > 100 µM

q: What does the data say about its TGI? Entry: COc1cc2c3c(c1OC)Oc1ccc(cc1)CC1c4c(cc(OC)c(OC)c4Oc4ccc(cc4)CC3N(C)CC2)CCN1C (stereo not drawn)
a: 37.1 µM

q: What does the data say about its TGI? Entry: `COC(=O)C[C@H](CCSC)NC(=O)C[C@H](CCSC)NC(=O)C[C@H](CCSC)NC(=O)OC(C)(C)C`
a: > 100 µM

q: What does the data say about its TGI? Entry: `CC1(C)N=C(N)N=C(N)N1c1ccc(OCCCCNC(=O)c2ccc(S(=O)(=O)F)cc2)c(Cl)c1`
a: > 100 µM

q: What does the data say about its TGI? Entry: N#CC1CCc2c(c(-c3cn[nH]c3C(F)(F)F)nc3c(F)cc4[nH]ncc4c23)C1 (stereo not drawn)
a: 38.8 µM

q: What does the data say about its TGI? Entry: COc1ccc(C2NC(=O)Nc3c2c(=O)oc2c3ccc3ccccc32)cc1 (stereo not drawn)
a: > 100 µM

q: What does the data say about its TGI? Entry: `C=CCn1c(=O)c2ccccc2[n+]2c(-c3cccc([N+](=O)[O-])c3)csc12`
a: > 100 µM

q: What does the data say about its TGI? Entry: C[C@@H]1OCC(O)C([C@H]2OC(c3ccccc3)=N[C@H]2CO)O1 (stereo partly drawn)
a: > 100 µM

q: What does the data say about its TGI? Entry: CC(=O)[C@H]1CCC2[C@@H]3CC=C4C(O)C(OS(=O)(=O)O)CC[C@]4(C)C3CC[C@@]21C (stereo partly drawn)
a: > 100 µM
